Values from paper PMC5540273

# System: DYRK2;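 further: KINOMEscan kinase panel screen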
# Conditions: concentration: 1 μM,replicates: in singlicate; n = 1
Entries and their %Inh values follow.
Provide the reading as a plain figure in %.

O=C(NCCCN1CCOC1=O)c1cnc(NCc2cc(Cl)ccc2Cl)nc1NC1CCCC1    0
C[C@@H](Oc1cc(-c2cnn(C3CCNCC3)c2)cnc1N)c1c(Cl)ccc(F)c1Cl    30
CN(C)CC(O)COc1ccc(Nc2nccc(-c3cnn4nc(N5CCOCC5)ccc34)n2)cc1 (centres unmarked)    87
Cl.Oc1cc(-c2nc(-c3ccccc3)[nH]c2-c2ccncc2)ccc1Cl    5

Query: Provide measured %Inh value, entry: `Cl.Cl.NC[C@H](CC1CCCCC1)NC(=O)c1cc(Br)c(-c2ccnc3[nH]ccc23)s1`
Response: 67
